- Test system: Mus musculus
- PROTOCOL NOTES: Antiinflammatory activity in Kunming mouse CFA-induced arthritis model assessed as COX-2 level in serum at 100 mg/kg/day, po for 1 week administered on day 8 post CFA induction by ELISA (reference value: 85.3 +/- 0.1 ng/L)
- Type: functional
READOUT NAME: Activity (ng/L)
Expressed in ng/L, but write only the number.

[[record]]
smiles_entry = "COc1cc(O)c(C(C)=O)cc1Br"
readout_name = "Activity"
endpoint_unit = "ng/L"
reported_value = 57.6

[[record]]
smiles_entry = "CCCCCCCCCCCCCCCCOc1cc(OC)ccc1C(C)=O"
readout_name = "Activity"
endpoint_unit = "ng/L"
reported_value = 64.4

[[record]]
smiles_entry = "CCCCCCCCCCCCCCCCOc1cc(OC)c(Br)cc1C(C)=O"
readout_name = "Activity"
endpoint_unit = "ng/L"
reported_value = 64.7


Let us move to another entry and its Activity.
QUERY: So what Activity did `COc1ccc(C(C)=O)c(O)c1` get with Mus musculus?
RESULT: 61.1

Data origin: ChEMBL document CHEMBL3862014
